# Method Description: qHTS assay to identify small molecule antagonists of the estrogen related receptor (ERR) signaling pathway from Tox21 library (AID 1224848); note: nearly all actives have a fitted effect of over 50% in size
# Experimental Context: ERR reporter cell line, luciferase antagonist mode, 18 h; series mostly up to 92.4 µM
Inconclusive results are not listed. The source made the active and inactive calls. Calls come from the whole dose curve; as a rule, active = well fitted inhibition curve with a large enough effect in the repeat runs; inconclusive = weak or mixed curves; inactive = no such curve, though single readings can be large or run the other way.
Result category, one only: active, inactive

Illustrative cases are given below, each with its answer.
INSERT INTO assay_data (compound, cat) VALUES
  ('CC1COC(Cn2cncn2)(c2ccc(Oc3ccc(Cl)cc3)cc2Cl)O1 (stereo unspecified)', 'active'),
  ('CO/C=C(/C(=O)OC)c1ccccc1Oc1cc(Oc2ccccc2C#N)ncn1', 'active'),
  ('Cc1cc(C)c(C(=O)P(=O)(c2ccccc2)c2ccccc2)c(C)c1', 'active'),
  ('O=C(Nc1ccccc1-c1ccc(Cl)cc1)c1cccnc1Cl', 'active'),
  ('CC(c1ccccc1)(c1ccc(O)cc1)c1ccc(O)cc1', 'active');

Query :: Which outcome did this test record for the compound N#Cc1cc([N+](=O)[O-])ccc1N ?
Result :: inactive

Query :: Same read-out for CCN(CC)C(=O)Cl ?
Result :: inactive

Query :: Follow-up item: Cc1ccc(N(SC(F)(Cl)Cl)S(=O)(=O)N(C)C)cc1
Result :: active

Query :: Also Cc1cc(C(C)(C)c2ccc(O)c(C)c2)ccc1O , if possible.
Result :: active

Query :: What would you report for O=C(O)/C=C\C(=O)O ?
Result :: inactive

Query :: Entry COc1ccc(C(c2ccc(OC)cc2)C(Cl)(Cl)Cl)cc1 please
Result :: active

----------
# Method Description: qHTS assay to identify small molecule agonists or antagonists of the thyroid stimulating hormone receptor (TSHR) signaling pathway - wild type cell line counter screen (AID 1259384)
# Experimental Context: HEK293 wild type, cAMP HTRF counter-screen, active compounds read high; series mostly up to 92.4 µM
# Protocol: U.S. Tox21 Program National Center for Advancing Translational Sciences [NCATS] NIH Chemical Genomics Center [NCGC] U.S. Environmental Protection Agency [EPA] National Institutes of Environmental Health Sciences [NIEHS] National Toxicology Program [NTP] […] Tox21 Assay Protocol Summary: Hek293 cells (wild type) were dispensed at 800 cells/4 uL/well in 1536-well white plates using a Multidrop dispenser. […] The fluorescence intensity in the plates was measured using an Envision plate reader. […]
Inconclusive results are not listed. The source made the active and inactive calls. Calls follow the shape of the full dose curve.
Value Kind: cAMP activity change

INSERT INTO results (smiles_record, experimental_result) VALUES
  ('CO/C=C(/C(=O)OC)c1ccccc1Oc1cc(Oc2ccccc2C#N)ncn1', 'inactive'),
  ('Oc1c(I)cc(I)cc1I', 'inactive'),
  ('CCN(CC)C(=O)Cl', 'inactive');

----------
# Method Description: qHTS assay for identifying genotoxic compounds that show differential cytotoxicity against isogenic chicken DT40 cell lines with known DNA damage response pathways - wild type cell line (AID 743012); note: nearly all actives have a fitted effect of over 60% in size
# Experimental Context: DT40 wild type chicken cells viability, CellTiter-Glo, 40 h; series mostly up to 68.4 µM
Inconclusive results are not listed. The source made the active and inactive calls. Calls follow the shape of the dose curve; as a rule, active = well fitted cell-killing curve with a large enough effect in the repeat runs; inconclusive = weak or mixed curves, or effect the other way; inactive = no such curve, though single readings can be large or run the other way.
Entry note: the call must match one of active, inactive

Examples from the recorded data:
INSERT INTO results (compound, cat) VALUES
  ('C[C@@H]1[C@@H]2Cc3ccc(O)cc3[C@@]1(C)CCN2CC1CC1', 'inactive'),
  ('CCCCC[C@@H](O)C1C(=O)OC(C)[C@H](O)/C=C/C=C/C=C/C=C/C=C(\C)C(O)C(O)C(O)C[C@H](O)C[C@H](O)C[C@H](O)C[C@H](O)C[C@@H]1O (stereo partly specified)', 'inactive'),
  ('Nc1ccc([N+](=O)[O-])cc1', 'active'),
  ('O=P1(N(CCCl)CCCl)NC(OO)CCO1 (stereo unspecified)', 'inactive'),
  ('OC(c1ccccc1)(c1ccccc1)C1CN2CCC1CC2 (stereo unspecified)', 'active');

Query :: Could you kindly confirm the outcome this assay logged for CO/C=C(/C(=O)OC)c1ccccc1Oc1cc(Oc2ccccc2C#N)ncn1 ?
Result :: active

Query :: Follow-up item: CCCC(C)(COC(N)=O)COC(=O)NC1CC1 (stereo unspecified)
Result :: inactive

Query :: What about this compound? N#CC(C#N)=Cc1cc(O)c(O)c(O)c1
Result :: active

Query :: And for [2H]C([2H])([2H])[C@H](N)Cc1ccccc1 ?
Result :: inactive

Query :: Consider next the compound CCC1(c2ccccc2)C(=O)NC(=O)N(C)C1=O (stereo unspecified) in the same way.
Result :: inactive

Query :: Thanks! And O=c1c2ccccc2[se]n1-c1ccccc1 ?
Result :: active
